target entity: surface-expressing mutant TPC2 channel (TPC2^LL/AA) in HEK293 cells (Homo sapiens, UniProt Q8NHX9, L11A/L12A)
Construct: expressed in transfected cells; host or cells: HEK293
Sequence (Q8NHX9 whole entry L11A/L12A): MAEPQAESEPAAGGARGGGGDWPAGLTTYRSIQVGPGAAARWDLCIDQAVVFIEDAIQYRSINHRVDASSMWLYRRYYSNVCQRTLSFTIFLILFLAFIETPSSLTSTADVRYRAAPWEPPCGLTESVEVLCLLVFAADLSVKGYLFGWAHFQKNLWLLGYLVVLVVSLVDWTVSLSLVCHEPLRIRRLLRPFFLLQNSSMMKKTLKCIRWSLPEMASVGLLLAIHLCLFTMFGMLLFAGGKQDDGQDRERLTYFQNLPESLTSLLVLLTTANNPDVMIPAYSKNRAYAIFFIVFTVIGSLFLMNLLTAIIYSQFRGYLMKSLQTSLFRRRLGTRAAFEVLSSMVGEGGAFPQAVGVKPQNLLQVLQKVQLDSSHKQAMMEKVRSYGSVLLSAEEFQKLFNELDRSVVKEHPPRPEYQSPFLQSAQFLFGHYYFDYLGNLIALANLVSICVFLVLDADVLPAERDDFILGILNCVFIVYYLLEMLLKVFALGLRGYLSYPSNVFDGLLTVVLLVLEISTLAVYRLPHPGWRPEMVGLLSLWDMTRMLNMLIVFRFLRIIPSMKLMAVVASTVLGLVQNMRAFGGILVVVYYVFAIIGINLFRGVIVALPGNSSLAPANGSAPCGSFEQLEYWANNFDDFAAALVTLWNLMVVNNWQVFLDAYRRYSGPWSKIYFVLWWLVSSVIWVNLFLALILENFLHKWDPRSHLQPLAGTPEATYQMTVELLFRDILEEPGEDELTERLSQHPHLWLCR
assay info: Whole-cell recordings of ITPC2-LL/AA
Type: cell-based
details: whole-cell recordings at −140 mV; TPC2^LL/AA-transfected HEK293 cells; read-out: EC50
Kindly state EC50 for each of the entries shown.
Your answer is read as µM, so omit the unit and give the number.

# input Can you look up the measured EC50 of CN(C)CCCN1c2ccccc2CCc2ccc(Cl)cc21 for me?
# output 43

# input Now consider CNCCCN1c2ccccc2CCc2ccccc21 .
# output 87

# input And for CN(C)CCCN1c2ccccc2Sc2ccc(Cl)cc21 ?
# output 60

# input Same question, CN(C)CCCN1c2ccccc2Sc2ccc(C(F)(F)F)cc21 this time
# output 63

# input Please give the result for CN(C)CCCN1c2ccccc2CCc2ccccc21 too.
# output 112

# input And then CN(C)CCC=C1c2ccccc2CCc2ccccc21 , what is it?
# output 102

# input Next entry: CNCCC=C1c2ccccc2CCc2ccccc21
# output 52

###

target entity: PI(3,5)P2-insensitive mutant TPC2 channel (K204A) (Homo sapiens, UniProt Q8NHX9, K204A)
Construct: expressed in transfected cells; host or cells: HEK293
Sequence (Q8NHX9 whole entry K204A): as the sequence (Q8NHX9 whole entry L11A/L12A) above, with A11L, A12L, K204A counted along it
assay info: Whole-endolysosome recordings of ITPC2-K204A
Type: biochemical
details: K204A+pip2 (50 nM); MEAN (Fig. 3D)
measure: EC50

# input What does the record list as EC50 for CN(C)CCCN1c2ccccc2CCc2ccc(Cl)cc21 ?
# output 48.7 µM

###

target entity: surface-expressing mutant TPC2 channel (TPC2^LL/AA) in HEK293 cells (Homo sapiens, UniProt Q8NHX9, L11A/L12A)
Construct: expressed in transfected cells; host or cells: HEK293
assay info: Whole-cell recordings of ITPC2-LL/AA
Type: cell-based
details: preliminary whole-cell test of positive LOPAC hits; HEK293 cells overexpressing TPC2 LL/AA; voltage ramp -140 to +100 mV (200 ms); measured at -140 mV
Counter-ions that a name gives are not always drawn.
measure: I-TPC2

Solved cases below.
# input Requested field: I-TPC2. Item: CN(C)C(=O)C(CCN1CCC(O)(c2ccc(Cl)cc2)CC1)(c1ccccc1)c1ccccc1 [Loperamide]
# output No activation

# input Same again, this time with C#CCOC(=O)C1=CCCN(C)C1 [Arecaidine propargyl ester]
# output No activation

# input // next record CCCNCC(O)COc1ccccc1C(=O)CCc1ccccc1 (centres unmarked) [Propafenone]
# output No activation

# input Param item: N#C/C(=C\c1ccc(O)c(O)c1)C(=O)NCc1ccccc1 [Tyrphostin B42]
# output No activation

# input CN(C)CCCN1c2ccccc2Sc2ccc(C(F)(F)F)cc21 [Triflupromazine hydrochloride] ?
# output >1500 pA

---
# input Which measured I-TPC2 value corresponds to CN(C)CCC=C1c2ccccc2CCc2ccccc21 [Amitriptyline hydrochloride] ?
# output ~1000 pA

# input CCN(CC)CCCC(C)Nc1c2ccc(Cl)cc2nc2ccc(OC)cc12 (centres unmarked) [Quinacrine dihydrochloride dihydrate] ?
# output No activation

# input Follow-up entry: C[N+](C)(C)CCOC(N)=O [Carbachol]
# output No activation

# input And then C[N+](C)(C)CC#CCN1CCCC1=O , what is it?
# output No activation

# input Try the molecule CN1Cc2c(N)cccc2C(c2ccccc2)C1 (centres unmarked) [Nomifensine maleate]
# output No activation
